# Read-out: urokinase plasminogen activator (uPA), PLAU (gene 5328)
# Protocol details: BSK_KF3CT_uPA: BioMAP Diversity Plus: KF3CT Assay for urokinase plasminogen activator (uPA) Biomarker Activity (AID 2283075)
# Measurement context: primary human keratinocytes with fibroblasts; actives raise or lower the signal
Calls of active or inactive are those of the source. Rule for the calls: active = hit-call score of the fitted dose curve at least 0.9, where 1 is the maximum; inactive = score below 0.9.
Labels: yes (1) (active), no (0) (inactive)

>>> assigned_class("C=CC(C)(O)CCC=C(C)C (centres undefined)")
"no (0)"
>>> assigned_class("CC(CN=Cc1ccccc1O)N=Cc1ccccc1O (centres undefined)")
"no (0)"
>>> assigned_class("CCN(CC)C(=O)N(CC)CC")
"no (0)"
>>> assigned_class("c1ccc2cc(Nc3ccc(Nc4ccc5ccccc5c4)cc3)ccc2c1")
"no (0)"
>>> assigned_class("c1ccc(CCc2ccccc2)cc1")
"yes (1)"
>>> assigned_class("C=C(C)C(=O)OCC(CC)(COC(=O)C(=C)C)COC(=O)C(=C)C")
"no (0)"
>>> assigned_class("COc1ccc(OC)c(N=Nc2c(O)ccc3ccccc23)c1")
"yes (1)"
>>> assigned_class("CN(c1nccc(=O)[nH]1)C1CCN(c2nc3ccccc3n2Cc2ccc(F)cc2)CC1")
"no (0)"
>>> assigned_class("C1=CC2C3C=CC(C3)C2C1 (centres undefined)")
"no (0)"
>>> assigned_class("Clc1cc(Cl)c(-c2c(Cl)c(Cl)cc(Cl)c2Cl)cc1Cl")
"yes (1)"
>>> assigned_class("CC(=O)c1c(C)c([N+](=O)[O-])c(C(C)(C)C)c([N+](=O)[O-])c1C")
"no (0)"
>>> assigned_class("CS(=O)(=O)c1ccc(C2=C(c3ccccc3)C(=O)OC2)cc1")
"no (0)"
>>> assigned_class("IC(I)I")
"no (0)"
>>> assigned_class("CCCCOC(=O)CCCCCCCC(=O)OCCCC")
"no (0)"
>>> assigned_class("Cc1cc(CCC(=O)OCCOCCOCCOC(=O)CCc2cc(C)c(O)c(C(C)(C)C)c2)cc(C(C)(C)C)c1O")
"no (0)"
>>> assigned_class("CS(=O)(=O)OCCCCOS(C)(=O)=O")
"no (0)"
>>> assigned_class("O=C(Nc1ccc2c(O)c(N=Nc3ccc(N=Nc4ccc(S(=O)(=O)O)cc4)cc3)c(S(=O)(=O)O)cc2c1)c1ccccc1")
"no (0)"
>>> assigned_class("CN(C)C(=S)SC(=S)N(C)C")
"no (0)"
>>> assigned_class("CC(C)(N=C=O)c1cccc(C(C)(C)N=C=O)c1")
"no (0)"
>>> assigned_class("CCCCCC(C=O)=Cc1ccccc1")
"yes (1)"
>>> assigned_class("CCCCN(CCCC)C(=O)N(CCCC)CCCC")
"yes (1)"
>>> assigned_class("C[C@@H]1CCN(C(=O)[C@H](CCCN=C(N)N)NS(=O)(=O)c2cccc3c2NC[C@H](C)C3)[C@@H](C(=O)O)C1")
"no (0)"
>>> assigned_class("O=C1OC2(c3ccccc31)c1ccc(O)c(Br)c1Oc1c2ccc(O)c1Br")
"no (0)"
>>> assigned_class("CC1(C)C2=CCCC(C)(C)[C@]23CC[C@H]1C3")
"no (0)"

====

# Assayed system: human Retinoid X Receptor beta (RXRb), RXRB (gene 6257) (UniProt P28702)
# Sequence (P28702 whole entry, looked up): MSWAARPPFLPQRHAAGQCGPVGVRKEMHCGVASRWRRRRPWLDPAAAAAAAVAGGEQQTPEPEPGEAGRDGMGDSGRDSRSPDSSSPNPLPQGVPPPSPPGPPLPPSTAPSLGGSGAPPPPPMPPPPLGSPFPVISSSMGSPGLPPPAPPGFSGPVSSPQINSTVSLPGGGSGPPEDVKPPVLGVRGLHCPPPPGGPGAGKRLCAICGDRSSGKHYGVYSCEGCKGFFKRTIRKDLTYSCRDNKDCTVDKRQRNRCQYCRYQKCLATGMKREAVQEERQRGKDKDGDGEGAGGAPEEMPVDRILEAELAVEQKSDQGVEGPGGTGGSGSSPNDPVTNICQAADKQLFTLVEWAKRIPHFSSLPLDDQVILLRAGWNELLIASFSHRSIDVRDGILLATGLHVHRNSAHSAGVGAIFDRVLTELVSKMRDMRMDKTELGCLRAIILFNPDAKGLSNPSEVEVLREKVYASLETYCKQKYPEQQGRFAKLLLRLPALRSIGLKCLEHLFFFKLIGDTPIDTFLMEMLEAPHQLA
# Protocol details: ATG_RXRb_TRANS: Attagene TRANS-FACTORIAL HepG2 Assay for human Retinoid X Receptor beta (RXRb) (AID 2283013)
# Method: ATG_TRANS is a cell-based, multiplexed-readout assay that uses HepG2, a human liver cell line, with measurements taken at 24 hours after chemical dosing in a 24-well plate.ATG_RXRb_TRANS is one of 30 assay component(s) measured or calculated from the ATG_TRANS assay. […] This assay endpoint, ATG_RXRb_TRANS, was analyzed in the positive analysis fitting direction relative to DMSO as the negative control and baseline of activity. […]
Results filed as inconclusive are left out. Activity calls are given as the source filed them. Rule for the calls: active = hit-call score of the fitted dose curve at least 0.9, where 1 is the maximum; inconclusive = response in the unintended direction; inactive = score below 0.9.
Labels: active, inactive

>>> assigned_class("CC(C)NCC(O)COc1ccc(CC(N)=O)cc1 (configuration not stated)")
"inactive"
>>> assigned_class("O=C1OC2(c3ccccc31)c1ccc(O)c(Br)c1Oc1c2ccc(O)c1Br")
"inactive"
>>> assigned_class("OC[C@H]1O[C@@H]2O[C@H]3[C@H](O)[C@@H](O)[C@@H](O[C@H]4[C@H](O)[C@@H](O)[C@@H](O[C@H]5[C@H](O)[C@@H](O)[C@@H](O[C@H]6[C@H](O)[C@@H](O)[C@@H](O[C@H]7[C@H](O)[C@@H](O)[C@@H](O[C@H]8[C@H](O)[C@@H](O)[C@@H](O[C@H]9[C@H](O)[C@@H](O)[C@@H](O[C@H]1[C@H](O)[C@H]2O)O[C@@H]9CO)O[C@@H]8CO)O[C@@H]7CO)O[C@@H]6CO)O[C@@H]5CO)O[C@@H]4CO)O[C@@H]3CO")
"inactive"
>>> assigned_class("C=C[Si]1(C)O[Si](C)(C=C)O[Si](C)(C=C)O[Si](C)(C=C)O1 (configuration not stated)")
"active"
>>> assigned_class("CC(=O)c1c(C)c([N+](=O)[O-])c(C(C)(C)C)c([N+](=O)[O-])c1C")
"active"
>>> assigned_class("C#CC(C)N(C)C(=O)Nc1ccc(Cl)cc1 (configuration not stated)")
"inactive"
>>> assigned_class("COC(C)(C)CC(C)=O")
"inactive"
